measurement-description: gradient 5% acetonitrile 3 min, to 50% in 2 min, to 85% in 15 min, held 3 min, 100 µL/min
run-conditions: column: Zorbax Extend-C18 2.1 x 50 mm; eluents: water / acetonitrile, 0.1% formic acid
The entries below come with measured RP-LC retention time values attached.
# output: bare number, implied unit s

// below: answered compounds
{"compound": "NS(=O)(=O)C#Cc1ccccc1", "data-value": 729}
{"compound": "O=C(Cc1cn(Cc2ccc(Cl)cc2)c2ccccc12)NCc1ccccn1", "data-value": 700}
{"compound": "COCCN1CCC(N2CCCN(S(=O)(=O)c3ccc(C)cc3)CC2)C1=O (centres undefined)", "data-value": 591}
{"compound": "CC(C)NC(=O)c1ccc(OCC2CCN(C(=O)c3ccc(C#N)cc3)CC2)cc1", "data-value": 811}

Which RP-LC retention time is reported for this compound? O=C(NCCC1=CCCCC1)c1ccc2ccnc(N3CCN(c4ccccc4)CC3)c2c1
958

// query: CC(NC(=O)c1ccco1)C(=O)NCc1nn(C)c2ccccc12 (centres undefined)
646

// query: CC(C)Cn1c(=O)c2ccccc2n(Cc2nc(-c3ccc(C(F)(F)F)cc3)no2)c1=O
1300

// query: COc1cc(NC(=O)C2CCCN(c3cc(=O)n(C)c(=O)n3C)C2)cc(OC)c1OC (centres undefined)
854

// query: COc1ccc(S(=O)(=O)N2CC[C@H](n3c(=O)n(C)c4cccnc43)C2)cc1
794
